Cited source for all entries: paper PMC9090415

Target: bacteriophage T4 DNA polymerase (Enterobacteria phage T4)
Construct: made in house
Sequence (P04415 whole entry): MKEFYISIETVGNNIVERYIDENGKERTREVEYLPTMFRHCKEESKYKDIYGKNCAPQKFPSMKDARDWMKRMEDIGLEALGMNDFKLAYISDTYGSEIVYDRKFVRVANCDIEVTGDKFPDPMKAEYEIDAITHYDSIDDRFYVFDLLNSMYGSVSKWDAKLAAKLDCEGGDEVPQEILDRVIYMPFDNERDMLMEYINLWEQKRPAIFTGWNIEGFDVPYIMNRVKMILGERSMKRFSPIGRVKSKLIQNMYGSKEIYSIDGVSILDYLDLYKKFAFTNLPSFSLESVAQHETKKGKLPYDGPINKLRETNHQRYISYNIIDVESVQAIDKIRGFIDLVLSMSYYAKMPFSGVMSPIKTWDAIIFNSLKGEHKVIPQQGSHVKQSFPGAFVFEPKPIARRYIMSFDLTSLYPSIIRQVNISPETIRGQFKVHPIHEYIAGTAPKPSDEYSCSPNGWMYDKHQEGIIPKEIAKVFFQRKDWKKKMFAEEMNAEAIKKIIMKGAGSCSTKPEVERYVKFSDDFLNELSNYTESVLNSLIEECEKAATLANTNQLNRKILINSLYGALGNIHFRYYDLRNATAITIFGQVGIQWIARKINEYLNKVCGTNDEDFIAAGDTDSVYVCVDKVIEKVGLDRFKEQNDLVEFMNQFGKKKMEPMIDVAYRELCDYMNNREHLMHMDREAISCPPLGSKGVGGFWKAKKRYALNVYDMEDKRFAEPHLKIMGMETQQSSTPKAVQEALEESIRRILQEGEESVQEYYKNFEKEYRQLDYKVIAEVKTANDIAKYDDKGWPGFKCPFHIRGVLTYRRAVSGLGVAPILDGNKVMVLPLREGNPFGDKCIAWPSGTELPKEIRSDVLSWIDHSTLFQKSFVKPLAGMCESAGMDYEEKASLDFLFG
Assay: Counter-screen against bacteriophage T4 DNA polymerase
Assay type: biochemical
Conditions: DRC-2; read at 10'; concentration 5
Let's look at some compounds and their measured % inhibition T4 10' 5.
Kindly provide the numeric value in % only, without the unit symbol.

Sample answers from the record:
| compound | systemTested | % inhibition T4 10' 5 / % |
| --- | --- | --- |
| COc1ccc(/C=C/c2cc(C(=O)O)c3ccccc3n2)cc1 [Molecule 5, COc1ccc(cc1)/C=C/c1nc2ccccc2c(c1)C(=O)O] | bacteriophage T4 DNA polymerase (Enterobacteria phage T4) | 7 |
| Cc1ccsc1Cn1c(C)ccc1C [Molecule 70, Cc1ccsc1Cn1c(C)ccc1C] | bacteriophage T4 DNA polymerase (Enterobacteria phage T4) | -1.66 |
| Cc1cc2[nH]c(C(=O)Nc3ccc(F)cc3)c(CN3CCOCC3)c2s1 [Molecule 60] | bacteriophage T4 DNA polymerase (Enterobacteria phage T4) | 2.77 |
| Cn1nc(-c2nc(-c3ccccc3)no2)c2c1CCN(C(=O)Cc1cccs1)C2 [Molecule 58] | bacteriophage T4 DNA polymerase (Enterobacteria phage T4) | 8 |
| CC(C)CC(C(=O)O)N1C(=O)C2C3C=CC(C2C1=O)C1C(=O)N(C(CC(C)C)C(=O)O)C(=O)C31 (centres unmarked) [KU0193449] | bacteriophage T4 DNA polymerase (Enterobacteria phage T4) | 4.24 |

Ask: Quick check: % inhibition T4 10' 5 on bacteriophage T4 DNA polymerase (Enterobacteria phage T4), item COc1ccccc1CC(=O)N1CCc2c(nc3cc(-c4ccccc4Cl)[nH]n3c2=O)C1 [Molecule 49] ?
Result: -28

Ask: Value wanted: % inhibition T4 10' 5 (bacteriophage T4 DNA polymerase (Enterobacteria phage T4)) of entry C#CC(C=CC)OC(=O)c1ccccc1C(=O)O (centres unmarked) [Molecule 61, CC=CC(OC(=O)c1ccccc1C(=O)O)C#C]
Result: -3

Ask: Item: COc1ccc(C2CC(c3ccc(Cl)cc3Cl)Nc3nc(N)nn32)cc1OC (centres unmarked) [Molecule 43] Test system: bacteriophage T4 DNA polymerase (Enterobacteria phage T4) Read-out: % inhibition T4 10' 5 Value: ?
Result: -2.24

Ask: Form field - read-out: % inhibition T4 10' 5; system: bacteriophage T4 DNA polymerase (Enterobacteria phage T4); submitted item: Nc1cc(Oc2ccc(O)c(N)c2)ccc1O [KU0034728]
Result: -11

Ask: What % inhibition T4 10' 5 appears in the records for this compound with bacteriophage T4 DNA polymerase (Enterobacteria phage T4)? CC(=O)Nc1cc(C(=O)c2cccs2)nn(-c2ccc(Cl)cc2)c1=O [KU0267905]
Result: 8.43

Ask: Look up % inhibition T4 10' 5 with bacteriophage T4 DNA polymerase (Enterobacteria phage T4) for this compound: Cc1nc(C)c2c(n1)N(CC1CCCCC1)C(=O)CC2 [KU0218606]
Result: 4.39

Ask: Return % inhibition T4 10' 5 measured with bacteriophage T4 DNA polymerase (Enterobacteria phage T4) given this compound: O=C(CCc1csc(NC(=O)Nc2ccccc2)n1)Nc1nc2ccccc2s1 [KU0177354]
Result: 2.7

Ask: Give bacteriophage T4 DNA polymerase (Enterobacteria phage T4) % inhibition T4 10' 5 for CCCc1ccc(Oc2coc3cc(OC)ccc3c2=O)cc1 [KU0193249]
Result: -2.34

Ask: Notebook: pull reported % inhibition T4 10' 5 for bacteriophage T4 DNA polymerase (Enterobacteria phage T4), entry Cn1nc(-c2nnc(-c3ccccc3F)o2)c2c1CCN(C(=O)c1ccccc1Cl)C2 [Molecule 34]
Result: -4

Ask: Param readout= % inhibition T4 10' 5; system= bacteriophage T4 DNA polymerase (Enterobacteria phage T4); entry= O=C(c1ccccc1)N1CCc2c(nc3cc(-c4ccccc4)[nH]n3c2=O)C1 [Molecule 30] ; returns value.
Result: -13

Ask: Given the entry O=C1CSC2=NC3=C(CCc4ccccc43)C(c3cccs3)N12 (centres unmarked) [Molecule 59, O=C1CSC2=NC3=C(C(N12)c1cccs1)CCc1c3cccc1] , what % inhibition T4 10' 5 was observed with bacteriophage T4 DNA polymerase (Enterobacteria phage T4)?
Result: 18

Ask: GET /values?readout=% inhibition T4 10' 5&system=bacteriophage T4 DNA polymerase (Enterobacteria phage T4)&item= CC(=O)OCC1=C(C(=O)[O-])N2C(=O)[C@@H](NC(=O)Cc3cccs3)[C@H]2SC1.[Na+] [Molecule 73]
Result: 0.574

###

Biological target: P. falciparum apicoplast DNA polymerase (Pf-apPOL) (Plasmodium falciparum)
Assay: Fluorescence-based high-throughput DNA polymerase assay (molecular beacon), primary screen and dose-response
Type: biochemical
Conditions: DRC-1; 90'; concentration 80
The entries below come with measured % inhibition Apol 90' values attached.
State the answer as a number, implicitly in %.

| molecule | systemTested | unitLabel | % inhibition Apol 90' |
| --- | --- | --- | --- |
| COc1ccc(C)cc1NC(=O)Cn1ccc2c(=O)[nH]ccc21 [Molecule 15, COc1ccc(cc1NC(=O)Cn1ccc2c1cc[nH]c2=O)C] | P. falciparum apicoplast DNA polymerase (Pf-apPOL) (Plasmodium falciparum) | % | 84.8173 |
| CC(C)(C)OC(=O)COc1ccc2cc(-c3ccccc3)c(=O)oc2c1 [Molecule 81] | P. falciparum apicoplast DNA polymerase (Pf-apPOL) (Plasmodium falciparum) | % | 41.1721 |
| O=[N+]([O-])c1cc2c(cc1CN1CCN(c3cccc(Cl)c3)CC1)OCO2 [KU0005610] | P. falciparum apicoplast DNA polymerase (Pf-apPOL) (Plasmodium falciparum) | % | 60.8313 |
| Cc1nn(CC(=O)NCCSCc2ccco2)c(C)c1Br [KU0267182] | P. falciparum apicoplast DNA polymerase (Pf-apPOL) (Plasmodium falciparum) | % | 56.479 |
| CCOc1cccc2cc(C(=O)Nc3nnc(-c4ccno4)o3)oc12 [Molecule 28, CCOc1cccc2c1oc(c2)C(=O)Nc1nnc(o1)c1ccno1] | P. falciparum apicoplast DNA polymerase (Pf-apPOL) (Plasmodium falciparum) | % | 87.3573 |

Ask: Could you share which % inhibition Apol 90' value was measured for Cc1cccc(CC(=O)N2CCc3c(nc4cc(-c5ccccc5)[nH]n4c3=O)C2)c1 [Molecule 12] ?
Result: 85

Ask: Suppose we examine the molecule CSCCC(C)(O)CNC(=O)C1CC1 (centres unmarked) [KU0200150] ; what % inhibition Apol 90' value has been reported?
Result: 47.9472

Ask: Look up % inhibition Apol 90' for this molecule: COc1ccc2c(c1)CCc1c-2nc2ccc(Br)cc2c1C(=O)O [KU0059417]
Result: 62.4129

Ask: So what's the measured % inhibition Apol 90' for this one? CC(C)(C)c1cc(C(=O)C(C#N)=NNc2cccc(Cl)c2)no1 [Molecule 98]
Result: 96.7924

Ask: Could you tell me which % inhibition Apol 90' is on file for COCCN(CCOC)Cc1c(O)ccc2c1OC(=Cc1cc(Br)ccc1OC)C2=O [KU0198471] ?
Result: 100.102

Ask: Which % inhibition Apol 90' reading was recorded for the molecule CN(C)C=C1SCc2ccccc2C1=O [Molecule 77, CN(C=C1SCc2c(C1=O)cccc2)C] ?
Result: 62.9199

Ask: # query: % inhibition Apol 90' of entry O=[N+]([O-])c1ccc(/C=C/c2ccc3ccccc3n2)o1 [Molecule 21, O=N(=O)c1ccc(o1)/C=C/c1ccc2c(n1)cccc2]
Result: 64.7186

###

Biological target: P. falciparum apicoplast DNA polymerase (Pf-apPOL) (Plasmodium falciparum, UniProt Q8ILY1)
Sequence (Q8ILY1 entry or part of it): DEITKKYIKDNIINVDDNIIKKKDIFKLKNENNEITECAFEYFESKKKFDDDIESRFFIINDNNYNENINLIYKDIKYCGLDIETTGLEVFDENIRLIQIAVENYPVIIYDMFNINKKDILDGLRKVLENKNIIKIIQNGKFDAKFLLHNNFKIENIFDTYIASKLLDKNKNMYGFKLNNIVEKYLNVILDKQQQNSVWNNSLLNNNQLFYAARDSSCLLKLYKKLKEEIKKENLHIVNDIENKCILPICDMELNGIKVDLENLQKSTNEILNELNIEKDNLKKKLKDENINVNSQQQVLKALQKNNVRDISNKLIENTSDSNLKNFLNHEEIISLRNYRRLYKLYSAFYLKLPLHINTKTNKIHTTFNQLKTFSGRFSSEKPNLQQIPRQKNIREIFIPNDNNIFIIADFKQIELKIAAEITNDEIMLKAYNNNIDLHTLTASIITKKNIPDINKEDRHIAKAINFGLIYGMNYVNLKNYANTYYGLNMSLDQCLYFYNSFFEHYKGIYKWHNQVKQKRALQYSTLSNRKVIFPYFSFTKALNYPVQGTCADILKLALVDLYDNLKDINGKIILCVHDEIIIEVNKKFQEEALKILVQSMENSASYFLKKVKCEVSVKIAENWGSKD
Assay: Fluorescence-based high-throughput DNA polymerase assay (molecular beacon), primary screen and dose-response;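 for % inhibition Apol 40': compound concentration given in µM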
Format: biochemical
Conditions: DRC-2, 40', concentration 2.5
reportedEndpoint: % inhibition Apol 40' (%)
Report as a plain number; the unit % is understood.

| compound | systemTested | unitLabel | valueReported |
| --- | --- | --- | --- |
| O=[N+]([O-])c1cc2c(cc1CN1CCCCCC1)OCO2 | P. falciparum apicoplast DNA polymerase (Pf-apPOL) (Plasmodium falciparum, UniProt Q8ILY1) | % | 13 |
| O=C(O)c1c(F)c(F)c(-c2c(F)c(F)c(C(=O)O)c(F)c2F)c(F)c1F | P. falciparum apicoplast DNA polymerase (Pf-apPOL) (Plasmodium falciparum, UniProt Q8ILY1) | % | 5 |
| CN(C)C=CC(=O)c1ccccn1 | P. falciparum apicoplast DNA polymerase (Pf-apPOL) (Plasmodium falciparum, UniProt Q8ILY1) | % | 6 |
| O=[N+]([O-])c1cc2c(cc1CN1CCN(c3cccc(Cl)c3)CC1)OCO2 | P. falciparum apicoplast DNA polymerase (Pf-apPOL) (Plasmodium falciparum, UniProt Q8ILY1) | % | 2.55 |
| CN1CC(=Cc2ccco2)C(=O)C(=Cc2ccco2)C1 | P. falciparum apicoplast DNA polymerase (Pf-apPOL) (Plasmodium falciparum, UniProt Q8ILY1) | % | 21 |
| CSCCC(C)(O)CNC(=O)C1CC1 (stereo not drawn) | P. falciparum apicoplast DNA polymerase (Pf-apPOL) (Plasmodium falciparum, UniProt Q8ILY1) | % | 3.34 |
| Cc1ncc(CSc2nc(C(C)(C)C)cs2)c(CO)c1O | P. falciparum apicoplast DNA polymerase (Pf-apPOL) (Plasmodium falciparum, UniProt Q8ILY1) | % | 4 |
| O=C(Nc1nnc(-c2ccno2)o1)c1ccc2c(c1)OCO2 | P. falciparum apicoplast DNA polymerase (Pf-apPOL) (Plasmodium falciparum, UniProt Q8ILY1) | % | -1.21 |

Now take the following compound into account.
Ask: Fill in the blank: the reported % inhibition Apol 40' of COc1cc(/C=C2\S/C(=N/C(C)=O)NC2=O)cc(Br)c1OCC(=O)O is ____.
Result: 1.51
